Listed here are molecules together with their documented DC50.
Assayed target: BRAF V600E (Homo sapiens, UniProt P15056, V600E)
Construct: endogenous C-terminal HiBiT fusion tag on BRAF V600E allele; endogenous in cells; host or cells: A375 clone 1F10 (CRISPR-Cas9 knock-in of the HiBiT tag; parental A375 from ATCC)
Sequence (P15056 whole entry V600E, the tested form may be a part): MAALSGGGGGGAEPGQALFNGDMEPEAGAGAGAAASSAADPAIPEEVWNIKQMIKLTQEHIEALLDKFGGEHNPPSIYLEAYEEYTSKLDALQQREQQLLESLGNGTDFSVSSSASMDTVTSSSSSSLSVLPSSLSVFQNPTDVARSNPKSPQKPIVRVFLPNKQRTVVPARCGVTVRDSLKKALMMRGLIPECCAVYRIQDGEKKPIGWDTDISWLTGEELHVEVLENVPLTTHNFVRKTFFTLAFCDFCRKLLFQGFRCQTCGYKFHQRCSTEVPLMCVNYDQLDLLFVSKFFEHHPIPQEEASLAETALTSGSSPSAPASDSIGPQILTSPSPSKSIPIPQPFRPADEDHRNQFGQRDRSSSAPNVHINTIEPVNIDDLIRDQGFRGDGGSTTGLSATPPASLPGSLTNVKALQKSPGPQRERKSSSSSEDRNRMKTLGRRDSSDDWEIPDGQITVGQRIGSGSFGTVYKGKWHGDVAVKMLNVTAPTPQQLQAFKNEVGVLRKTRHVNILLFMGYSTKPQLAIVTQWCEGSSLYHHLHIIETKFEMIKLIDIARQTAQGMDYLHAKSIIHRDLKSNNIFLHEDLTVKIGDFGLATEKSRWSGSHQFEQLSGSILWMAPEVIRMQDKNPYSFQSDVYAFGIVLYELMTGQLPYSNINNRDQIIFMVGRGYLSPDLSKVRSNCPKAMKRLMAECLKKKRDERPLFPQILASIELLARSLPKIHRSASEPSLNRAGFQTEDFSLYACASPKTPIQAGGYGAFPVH
Experiment: BRAF HiBiT degradation assay, C-terminal HiBiT-tagged BRAF V600E A375 cells (clone 1F10), Nano-Glo HiBiT Lytic assay
Type: cell-based
Measurement parameters: A375 (BRAF V600E); DC50 at 50%: fitted conc. at Y=50

Examples with answers:
1) CCCS(=O)(=O)Nc1cccc(-c2nc(C(C)(C)C)sc2-c2ccnc(NC3CC4(C3)CN(CC3CCN(c5ccc(C(=O)NC6CCC(=O)NC6=O)cc5)CC3)C4)n2)c1F (racemic); 0.05 to 0.5 µM
2) CCCS(=O)(=O)Nc1cccc(-c2cn(-c3ccc(OC4CCN(C(=O)C5CCN(c6ccc(C7CCC(=O)NC7=O)cn6)CC5)CC4)cc3)nc2-c2ccncc2)c1F (racemic); 0.05 to 0.5 µM
3) CCCS(=O)(=O)Nc1cccc(-c2nc(-c3ccc(C4CCN(CC5CCN(c6ccc(C7CCC(=O)NC7=O)cn6)CC5)CC4)cc3)sc2-c2ccnc(N)n2)c1F (racemic); 0.01 to 0.05 µM
4) CCCS(=O)(=O)Nc1cccc(-c2nc(C(C)(C)C)sc2-c2ccnc(N[C@H]3CC[C@@H](N4CCN(C(=O)C5CCN(c6ccc(C7CCC(=O)NC7=O)cn6)CC5)CC4)CC3)n2)c1F (mixture of isomers); < 0.01 µM

Q: What does the record list as DC50 for CCN(C)S(=O)(=O)Nc1cccc(-c2nc(C)sc2-c2ccnc(Nc3ccc(N4CCN(CC5CCN(c6ccc([C@H]7CCC(=O)NC7=O)cc6)CC5)CC4)cn3)n2)c1F ?
Ans: < 0.01 µM

Q: Queued: CCCS(=O)(=O)Nc1cccc(-c2cn(-c3ccc(N4CCN(CC5CCN(c6ccc(C7CCC(=O)NC7=O)cn6)CC5)CC4)nc3)nc2-c2ccncc2)c1F (racemic)
Ans: 0.05 to 0.5 µM

Q: Queued: CCCS(=O)(=O)Nc1cccc(-c2nc(C(C)(C)C)sc2-c2ccnc(NC3CC4(CCN(CC5CCN(c6ccc([C@H]7CCC(=O)NC7=O)cc6)CC5)CC4)C3)n2)c1F
Ans: 0.01 to 0.05 µM

Q: Queued: CCCS(=O)(=O)Nc1cccc(-c2cn(-c3ccc(C4CCN(CC5CCN(c6ccc(C7CCC(=O)NC7=O)cn6)CC5)CC4)cc3)nc2-c2ccncc2)c1F (racemic)
Ans: 0.01 to 0.05 µM

Q: Queued: CCCS(=O)(=O)Nc1cccc(-c2nc(C(C)(C)C)sc2-c2ccnc(Nc3cnn(C4CCN(C(=O)[C@@H]5CCN(c6ccc(C7CCC(=O)NC7=O)cn6)C5)CC4)c3)n2)c1F (mixture of isomers)
Ans: 0.05 to 0.5 µM

Q: Queued: CCCS(=O)(=O)Nc1cccc(-c2nc(C(C)(C)C)sc2-c2ccnc(Nc3ccc(C4CCN(C(=O)C[C@@H]5CCN(c6ccc7c(c6)n(C)c(=O)n7C6CCC(=O)NC6=O)C5)CC4)cc3)n2)c1F (mixture of isomers)
Ans: 0.01 to 0.05 µM

Where these numbers come from: patent US20260317324A1
